- System: recombinant HIV-1 viruses (NL4-3, RF, LAI) in MT-2 cells
- procedureText: MT-2 cell susceptibility assay of recombinant viruses
- Type: cell-based
- testSettings: Human immunodeficiency virus 1, NL43, MT2, NL4-3 A71V; read-out: ATV phenotype (value before parenthesis, EC50)
measuredQuantity: EC50 (nM)
// units = nM; emit number, no label

Quick check: EC50 of COC(=O)N[C@H](C(=O)N[C@@H](Cc1ccccc1)[C@@H](O)CN(Cc1ccc(-c2ccccn2)cc1)NC(=O)[C@@H](NC(=O)OC)C(C)(C)C)C(C)(C)C [ATV, atazanavir] ? 2.4

---

Please go through the items and note down their Subceptibility, Fold Change in EC50 relative to reference strain.
- System: clinical isolates containing an I50L substitution (and their baseline isolates)
- procedureText: PhenoSense phenotypic susceptibility of clinical isolates from ATV-treated patients who developed I50L
- Type: cell-based, HIV-1
- testSettings: Subject 169, Week 114
Reply numerically in Fold Change, unit not repeated.

Query: Subceptibility, Fold Change in EC50 relative to reference strain; subject: COC(=O)N[C@H](C(=O)N[C@@H](Cc1ccccc1)[C@@H](O)CN(Cc1ccc(-c2ccccn2)cc1)NC(=O)[C@@H](NC(=O)OC)C(C)(C)C)C(C)(C)C [ATV, atazanavir] 13

Name the reported Subceptibility, Fold Change in EC50 relative to reference strain value associated with the compound CC(C)(C)NC(=O)[C@@H]1CN(Cc2cccnc2)CCN1C[C@@H](O)C[C@@H](Cc1ccccc1)C(=O)N[C@H]1c2ccccc2C[C@H]1O [IDV, indinavir] 0.4

Bench note: what Subceptibility, Fold Change in EC50 relative to reference strain did CC(C)(C)NC(=O)[C@@H]1C[C@@H]2CCCC[C@@H]2CN1C[C@@H](O)[C@H](Cc1ccccc1)NC(=O)[C@H](CC(N)=O)NC(=O)c1ccc2ccccc2n1 [SQV, saquinavir] show? 0.5

Report Subceptibility, Fold Change in EC50 relative to reference strain for CC(C)c1nc(CN(C)C(=O)N[C@H](C(=O)N[C@@H](Cc2ccccc2)C[C@H](O)[C@H](Cc2ccccc2)NC(=O)OCc2cncs2)C(C)C)cs1 [RTV, ritonavir] please. 0.4

Give its Subceptibility, Fold Change in EC50 relative to reference strain value. Item: Cc1c(O)cccc1C(=O)N[C@@H](CSc1ccccc1)[C@H](O)CN1C[C@H]2CCCC[C@H]2C[C@H]1C(=O)NC(C)(C)C [NFV, nelfinavir] 0.7

If you can, please state the reported Subceptibility, Fold Change in EC50 relative to reference strain value of CC(C)CN(C[C@@H](O)[C@H](Cc1ccccc1)NC(=O)O[C@H]1CCOC1)S(=O)(=O)c1ccc(N)cc1 [APV, amprenavir] . 1.2

---

- Test system: clinical isolates containing an I50L substitution (and their baseline isolates)
- procedureText: PhenoSense phenotypic susceptibility of clinical isolates from ATV-treated patients who developed I50L
- Assay type: cell-based, HIV-1
- testSettings: Subject 100, Week 1.7
What Susceptibility, Fold Change in EC50 relative to reference strain was measured for each of the following?
Put your answer as a value accompanied by its unit after it.

Value wanted: Susceptibility, Fold Change in EC50 relative to reference strain (clinical isolates containing an I50L substitution (and their baseline isolates)) of entry COC(=O)N[C@H](C(=O)N[C@@H](Cc1ccccc1)[C@@H](O)CN(Cc1ccc(-c2ccccn2)cc1)NC(=O)[C@@H](NC(=O)OC)C(C)(C)C)C(C)(C)C [ATV, atazanavir] 1.5 Fold Change

Provide the documented Susceptibility, Fold Change in EC50 relative to reference strain with clinical isolates containing an I50L substitution (and their baseline isolates) as the system for CC(C)(C)NC(=O)[C@@H]1CN(Cc2cccnc2)CCN1C[C@@H](O)C[C@@H](Cc1ccccc1)C(=O)N[C@H]1c2ccccc2C[C@H]1O [IDV, indinavir] 1.6 Fold Change

Query the reported Susceptibility, Fold Change in EC50 relative to reference strain for clinical isolates containing an I50L substitution (and their baseline isolates); item: CC(C)CN(C[C@@H](O)[C@H](Cc1ccccc1)NC(=O)O[C@H]1CCOC1)S(=O)(=O)c1ccc(N)cc1 [APV, amprenavir] 1.5 Fold Change
